- Test system: 422866-222-R5-J1-PDC spheroid viability;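 also: spheroids exposed to agents for seven days before readout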
- procedure-summary: Anticancer human tumor 422866-222-R5-J1-PDC patient-derived pancreatic adenocarcinoma cell line growth inhibition [CLK]
- experimental-conditions: second compound 0.316 µM; first compound 0.1 µM; active compounds read low; spheroids with HUVEC and MSC
# maps each entry to its viability, T/C
Kindly provide the numeric value in % only, without the unit symbol.

- compound: "CCN1CCN(Cc2ccc(Nc3ncc(F)c(-c4cc(F)c5nc(C)n(C(C)C)c5c4)n3)nc2)CC1 + CN1CCN(c2cc(C(=O)Nc3cc4cc(-c5cnn(C)c5)ccc4cn3)ccn2)CC1"
  system-tested: "422866-222-R5-J1-PDC spheroid viability"
  viability, T/C / %: 72.3
- compound: "CC(=O)O[C@H]1C(=O)[C@@]2(C)[C@H]([C@H](OC(=O)c3ccccc3)[C@]3(O)C[C@H](OC(=O)[C@H](O)[C@@H](NC(=O)c4ccccc4)c4ccccc4)C(C)=C1C3(C)C)[C@]1(OC(C)=O)CO[C@@H]1C[C@@H]2O + CN1CCN(c2cc(C(=O)Nc3cc4cc(-c5cnn(C)c5)ccc4cn3)ccn2)CC1"
  system-tested: "422866-222-R5-J1-PDC spheroid viability"
  viability, T/C / %: 73
- compound: "COC1C=CCC(C)C(C)S(=O)(=O)NC(=O)c2ccc3c(c2)N(CC2CCC21)CC1(CCCc2cc(Cl)ccc21)CO3 (stereo not given) + CN1CCN(c2cc(C(=O)Nc3cc4cc(-c5cnn(C)c5)ccc4cn3)ccn2)CC1"
  system-tested: "422866-222-R5-J1-PDC spheroid viability"
  viability, T/C / %: 92.8
- compound: "Nc1ccn(C2OC(CO)C(O)C2(F)F)c(=O)n1 (stereo not given) + CNC(=O)c1ccc(Nc2nc(OC3CCCC3)c3c(-c4ccc5nc(C)oc5c4)c[nH]c3n2)c(OC)c1"
  system-tested: "422866-222-R5-J1-PDC spheroid viability"
  viability, T/C / %: 46.7
- compound: "CCc1c2c(nc3ccc(O)cc13)-c1cc3c(c(=O)n1C2)COC(=O)[C@]3(O)CC + CN1CCN(c2cc(C(=O)Nc3cc4cc(-c5cnn(C)c5)ccc4cn3)ccn2)CC1"
  system-tested: "422866-222-R5-J1-PDC spheroid viability"
  viability, T/C / %: 31.9

[ask] # input compound: CCCS(=O)(=O)Nc1ccc(F)c(C(=O)c2c[nH]c3ncc(-c4ccc(Cl)cc4)cc23)c1F + CN1CCN(c2cc(C(=O)Nc3cc4cc(-c5cnn(C)c5)ccc4cn3)ccn2)CC1 ; wanted: its viability, T/C
[reply] 102

[ask] Also need Cn1ncnc1[C@H]1c2n[nH]c(=O)c3cc(F)cc(c23)N[C@@H]1c1ccc(F)cc1 + CN1CCN(c2cc(C(=O)Nc3cc4cc(-c5cnn(C)c5)ccc4cn3)ccn2)CC1 , thanks.
[reply] 71.9

[ask] Also need O=C(c1cc(Cc2n[nH]c(=O)c3ccccc23)ccc1F)N1CCN(C(=O)C2CC2)CC1 + CN1CCN(c2cc(C(=O)Nc3cc4cc(-c5cnn(C)c5)ccc4cn3)ccn2)CC1 , thanks.
[reply] 82.2

[ask] Also need O=C(c1cc(Cc2n[nH]c(=O)c3ccccc23)ccc1F)N1CCN(C(=O)C2CC2)CC1 + CNC(=O)c1ccc(Nc2nc(OC3CCCC3)c3c(-c4ccc5nc(C)oc5c4)c[nH]c3n2)c(OC)c1 , thanks.
[reply] 84.7

[ask] Also need O=c1[nH]cc(F)c(=O)[nH]1 + CNC(=O)c1ccc(Nc2nc(OC3CCCC3)c3c(-c4ccc5nc(C)oc5c4)c[nH]c3n2)c(OC)c1 , thanks.
[reply] 79.7

Data provenance: PubChem BioAssay AID2060603
